These measurements were taken from patent US20220364989A1.

- test.name: NAC depletion under and without ultraviolet irradiation, HPLC with fluorescence detection (284 nm excitation, 333 nm fluorescence)
- assay.conditions: single compound
Returns met if the recorded Difference in depletion (under light irradiation - without light irradiation) NAC (%) is greater than or equal to 40%, and not met otherwise.

{"compound": "CN(C)C1C(O)=C(C(N)=O)C(=O)C2(O)C(O)=C3C(=O)c4c(O)cccc4C(C)(O)C3CC12 (stereo not shown)", "category": "met"}
{"compound": "CC1(C)SC2C(NC(=O)Cc3ccccc3)C(=O)N2C1C(=O)O (stereo not shown)", "category": "not met"}
{"compound": "CC(CN1c2ccccc2Sc2ccccc21)N(C)C.Cl (racemic)", "category": "met"}
{"compound": "COc1c2ccoc2cc2oc(=O)ccc12", "category": "met"}
{"compound": "[Na+].[O-][n+]1ccccc1[S-]", "category": "met"}
{"compound": "Cc1ccc(C=C2C(=O)C3(C)CCC2C3(C)C)cc1 (racemic)", "category": "not met"}
{"compound": "O=C([O-])Cc1ccccc1Nc1c(Cl)cccc1Cl.[Na+]", "category": "met"}
{"compound": "CC(O)CO (racemic)", "category": "not met"}
{"compound": "CCO", "category": "not met"}
{"compound": "C=CC1CN2CCC1CC2C(O)c1ccnc2ccc(OC)cc12.Cl.O.O (stereo not shown)", "category": "met"}
{"compound": "CC(C)OC(=O)C(C)(C)Oc1ccc(C(=O)c2ccc(Cl)cc2)cc1", "category": "met"}
{"compound": "CC(O)CCO (stereo not shown)", "category": "not met"}
{"compound": "CC(C)O", "category": "not met"}

----------
- assay.conditions: 24 h, 0.25 mmol/L, pH 10.2
measure.name: NAL Depletion (%) under light irradiation

{"molecule": "CCOc1ccc2c(C)cc(=O)oc2c1", "unit.label": "%", "measurement": 20.3}
{"molecule": "Nc1ccc(S(N)(=O)=O)cc1 [compound 27, Sulfanilamide]", "unit.label": "%", "measurement": 0.0}
{"molecule": "CC(=O)c1ccc2ccccc2c1", "unit.label": "%", "measurement": 8.4}
{"molecule": "Cc1ccc2oc(=O)ccc2c1", "unit.label": "%", "measurement": 5.7}
{"molecule": "CCCCCCCCCCCCCCCCO", "unit.label": "%", "measurement": 6.1}

----------
- test.name: NAL depletion under and without ultraviolet irradiation, HPLC with UV detection (281 nm)
- assay.conditions: 2,000 μW/cm^2 for 1 hour then 25° C. 23 hours, test substance solution 1 mmol/L
measure.name: NAL Depletion (%) under light irradiation

{"molecule": "C=CC1CN2CCC1CC2C(O)c1ccnc2ccc(OC)cc12.Cl.O.O (stereo not drawn)", "measurement": "4.1%"}
{"molecule": "CCO", "measurement": "0.0%"}
{"molecule": "[Na+].[O-][n+]1ccccc1[S-]", "measurement": "21.9%"}
{"molecule": "CC1(C)SC2C(NC(=O)Cc3ccccc3)C(=O)N2C1C(=O)O (stereo not drawn)", "measurement": "1.6%"}
{"molecule": "COc1c2ccoc2cc2oc(=O)ccc12", "measurement": "8.4%"}
{"molecule": "CC(C)O", "measurement": "0.3%"}

----------
- test.name: NAL depletion under and without ultraviolet irradiation, HPLC with fluorescence detection (284 nm excitation, 333 nm fluorescence)
- assay.conditions: single compound
Each entry below carries its reported Difference in depletion (under light irradiation - without light irradiation) NAL (%).
measure.name: Difference in depletion (under light irradiation - without light irradiation) NAL (%)

{"compound": "CC(O)CO (racemic) [compound 54]", "measurement": 0.7}
{"compound": "COc1c2ccoc2cc2oc(=O)ccc12 [compound 31]", "measurement": 6.0}
{"compound": "CC(C)OC(=O)C(C)(C)Oc1ccc(C(=O)c2ccc(Cl)cc2)cc1 [compound 38]", "measurement": 37.0}
{"compound": "CN(C)C1C(O)=C(C(N)=O)C(=O)C2(O)C(O)=C3C(=O)c4c(O)cccc4C(C)(O)C3CC12 (stereo not shown) [compound 36]", "measurement": 25.6}
{"compound": "CC(C)O [compound 47]", "measurement": 0.3}
{"compound": "CC1(C)SC2C(NC(=O)Cc3ccccc3)C(=O)N2C1C(=O)O (stereo not shown) [compound 44]", "measurement": 0.4}
{"compound": "[Na+].[O-][n+]1ccccc1[S-] [compound 26]", "measurement": 13.3}
{"compound": "O=C([O-])Cc1ccccc1Nc1c(Cl)cccc1Cl.[Na+] [compound 13]", "measurement": 0.0}
{"compound": "Cc1ccc(C=C2C(=O)C3(C)CCC2C3(C)C)cc1 (racemic) [compound 39]", "measurement": 0.0}
{"compound": "CC(O)CCO (stereo not shown) [compound 46]", "measurement": "−0.1"}
{"compound": "CCO [compound 50]", "measurement": 0.0}
{"compound": "CC(CN1c2ccccc2Sc2ccccc21)N(C)C.Cl (racemic) [compound 14]", "measurement": 6.6}
{"compound": "C=CC1CN2CCC1CC2C(O)c1ccnc2ccc(OC)cc12.Cl.O.O (stereo not shown) [compound 15]", "measurement": 0.7}

----------
- test.name: NAC depletion under and without ultraviolet irradiation, HPLC with fluorescence detection (284 nm excitation, 333 nm fluorescence)
- assay.conditions: without light irradiation, single compound
NAC Depletion (%) less than 0.2% is class 1; NAC Depletion (%) greater than or equal to 0.2% is class 0.

{"compound": "CC(O)CCO (stereo not shown)", "category": "class 1"}
{"compound": "CC(CN1c2ccccc2Sc2ccccc21)N(C)C.Cl (racemic)", "category": "class 0"}
{"compound": "CC(C)O", "category": "class 0"}
{"compound": "CC(O)CO (racemic)", "category": "class 1"}
{"compound": "CC(C)OC(=O)C(C)(C)Oc1ccc(C(=O)c2ccc(Cl)cc2)cc1", "category": "class 1"}
{"compound": "C=CC1CN2CCC1CC2C(O)c1ccnc2ccc(OC)cc12.Cl.O.O (stereo not shown)", "category": "class 0"}
{"compound": "O=C([O-])Cc1ccccc1Nc1c(Cl)cccc1Cl.[Na+]", "category": "class 1"}
{"compound": "CCO", "category": "class 0"}
{"compound": "[Na+].[O-][n+]1ccccc1[S-]", "category": "class 0"}
{"compound": "CC1(C)SC2C(NC(=O)Cc3ccccc3)C(=O)N2C1C(=O)O (stereo not shown)", "category": "class 0"}
{"compound": "CN(C)C1C(O)=C(C(N)=O)C(=O)C2(O)C(O)=C3C(=O)c4c(O)cccc4C(C)(O)C3CC12 (stereo not shown)", "category": "class 0"}
{"compound": "COc1c2ccoc2cc2oc(=O)ccc12", "category": "class 1"}

----------
Measured NAC Depletion (%) without light irradiation values are reported for all entries that follow.
- assay.conditions: 24 h, 0.25 mmol/L, pH 8
measure.name: NAC Depletion (%) without light irradiation

{"molecule": "CCOc1ccc2c(C)cc(=O)oc2c1 [compound 29, 4-Methyl-7-ethoxycoumarin]", "measurement": "0.0%"}
{"molecule": "CC(=O)c1ccc2ccccc2c1 [compound 37, Methyl β-naphthyl ketone]", "measurement": "0.6%"}
{"molecule": "CCCCCCCCCCCCCCCCO [compound 49, Cetyl alcohol]", "measurement": "1.8%"}
{"molecule": "Cc1ccc2oc(=O)ccc2c1 [compound 2, 6-Methylcoumarin]", "measurement": "0.5%"}
{"molecule": "Nc1ccc(S(N)(=O)=O)cc1 [compound 27, Sulfanilamide]", "measurement": "0.6%"}

----------
- test.name: NAL depletion under and without ultraviolet irradiation, HPLC with fluorescence detection (284 nm excitation, 333 nm fluorescence)
- assay.conditions: under light irradiation, single compound
Label label 1 when NAL Depletion (%) is at or above 6%; otherwise label label 0.

{"molecule": "CN(C)[C@@H]1C(=O)C(C(N)=O)=C(O)[C@@]2(O)C(=O)C3=C(O)c4c(O)cccc4[C@@](C)(O)[C@H]3C[C@@H]12 [No. 36, Tetracycline, reference compound]", "category": "label 1"}
{"molecule": "O=C([O-])Cc1ccccc1Nc1c(Cl)cccc1Cl.[Na+] [No. 13, Diclofenac Na, reference compound]", "category": "label 0"}
{"molecule": "C=C[C@H]1CN2CC[C@H]1C[C@H]2[C@H](O)c1ccnc2ccc(OC)cc12.Cl.O.O [No. 15, Quinine HCl (2H2O), reference compound]", "category": "label 0"}
{"molecule": "COc1c2occc2cc2ccc(=O)oc12 [No. 3, 8-Methoxypsoralen, reference compound]", "category": "label 1"}
{"molecule": "Cc1c([N+](=O)[O-])c(C)c([N+](=O)[O-])c(C(C)(C)C)c1[N+](=O)[O-] [No. 18, Musk xylene, reference compound]", "category": "label 1"}
{"molecule": "CC1(C)S[C@@H]2[C@H](NC(=O)Cc3ccccc3)C(=O)N2[C@H]1C(=O)O [No. 44, Penicillin G, reference compound]", "category": "label 0"}
